- Assay System: human 5-HT2B receptor (Homo sapiens (Human), UniProt P41595)
- Sequence (P41595 whole entry): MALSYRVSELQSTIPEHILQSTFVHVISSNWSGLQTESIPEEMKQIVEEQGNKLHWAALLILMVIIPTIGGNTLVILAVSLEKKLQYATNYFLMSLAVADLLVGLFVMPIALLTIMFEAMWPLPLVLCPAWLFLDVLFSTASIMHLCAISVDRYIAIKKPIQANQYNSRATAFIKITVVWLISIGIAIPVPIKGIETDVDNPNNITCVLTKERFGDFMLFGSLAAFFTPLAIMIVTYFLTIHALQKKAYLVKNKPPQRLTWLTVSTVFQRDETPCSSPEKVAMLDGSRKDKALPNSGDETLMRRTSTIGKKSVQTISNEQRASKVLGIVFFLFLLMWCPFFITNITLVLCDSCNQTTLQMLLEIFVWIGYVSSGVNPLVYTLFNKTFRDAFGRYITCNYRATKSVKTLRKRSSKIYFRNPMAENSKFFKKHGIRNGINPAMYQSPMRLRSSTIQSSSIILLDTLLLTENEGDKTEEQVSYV
- Procedure Text: 5-HT2B agonist activity assay (IP1 production, HTRF)
- Experimental Conditions: CHO cells expressing human 5-HT2B; IP1 production
Can you tell me EC50 for the items I'm about to list?
I only need the number, in µM, no unit after it.

For the compound CCCN1CCC[C@@H]2Cc3c(ccc(O)c3O)C[C@H]21 , give its measured EC50 value. 2.9

For the compound CCCN1CCC[C@@H]2Cc3c(ccc4c3OCO4)C[C@H]21 , give its measured EC50 value. 0.0038

---

- Assay System: human D1 receptor (Homo sapiens (Human))
- Sequence (P21728 whole entry): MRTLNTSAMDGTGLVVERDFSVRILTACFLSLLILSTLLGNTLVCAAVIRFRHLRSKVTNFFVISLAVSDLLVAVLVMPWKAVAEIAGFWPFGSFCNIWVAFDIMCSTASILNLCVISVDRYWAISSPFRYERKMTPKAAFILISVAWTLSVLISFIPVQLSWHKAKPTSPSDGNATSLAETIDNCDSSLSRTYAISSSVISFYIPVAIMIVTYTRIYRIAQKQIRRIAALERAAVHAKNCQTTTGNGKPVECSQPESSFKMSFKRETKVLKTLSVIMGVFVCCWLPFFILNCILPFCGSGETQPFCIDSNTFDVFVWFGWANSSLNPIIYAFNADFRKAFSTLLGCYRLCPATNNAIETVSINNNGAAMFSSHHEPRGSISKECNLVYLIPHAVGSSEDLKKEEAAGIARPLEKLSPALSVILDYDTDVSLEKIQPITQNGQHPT
- Procedure Text: Dopamine D1 receptor agonism, HTRF cAMP assay
- Assay type: cell-based
Quantity Name: EC50

For the compound CCCN1CCC[C@@H]2Cc3c(ccc4c3OCO4)C[C@H]21 , give its measured EC50 value. > 1 µM

---

- Assay System: human D1 receptor (Homo sapiens (Human))
- Procedure Text: Dopamine D1 receptor agonism, HTRF cAMP assay
- Format: cell-based
- Experimental Conditions: HEK-293 cells expressing human D1 receptor; cAMP HTRF; read-out: D1 EC50
Quantity Name: pEC50
Scale note: pEC50 = -log10(concentration in M).

For the compound CCCN1CCC[C@@H]2Cc3c(ccc(O)c3O)C[C@H]21 , give its measured pEC50 value. 8.48

For the compound CCCN1CCC[C@@H]2Cc3c(ccc(O)c3O[C@@H]3O[C@H](C(=O)O)[C@@H](O)[C@H](O)[C@H]3O)C[C@H]21 , give its measured pEC50 value. 5.57

---

- Assay System: human D2 receptor (Homo sapiens (Human), UniProt P14416)
- Sequence (P14416 whole entry): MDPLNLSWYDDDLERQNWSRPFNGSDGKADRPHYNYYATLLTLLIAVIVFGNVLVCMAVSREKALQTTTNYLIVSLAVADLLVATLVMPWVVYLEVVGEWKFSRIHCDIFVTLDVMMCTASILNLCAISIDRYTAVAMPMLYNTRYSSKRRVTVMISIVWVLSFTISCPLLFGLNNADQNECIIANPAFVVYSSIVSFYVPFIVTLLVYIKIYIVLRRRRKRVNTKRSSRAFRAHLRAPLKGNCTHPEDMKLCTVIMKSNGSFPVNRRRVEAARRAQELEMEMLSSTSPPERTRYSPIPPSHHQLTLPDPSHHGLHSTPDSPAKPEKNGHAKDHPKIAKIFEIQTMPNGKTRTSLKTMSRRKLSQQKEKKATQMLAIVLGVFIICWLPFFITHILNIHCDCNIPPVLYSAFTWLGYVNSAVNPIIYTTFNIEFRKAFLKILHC
- Procedure Text: Dopamine D2 receptor agonism, calcium mobilization assay
- Experimental Conditions: HEK293/G15 cells expressing human D2 receptor; calcium flux
Can you tell me EC50 for the items I'm about to list?
I only need the number, in nM, no unit after it.

Using human D2 receptor (Homo sapiens (Human), UniProt P14416) as the test system, report measured EC50 of CCCN1CCC[C@@H]2Cc3c(ccc4c3OCO4)C[C@H]21 . 46

Using human D2 receptor (Homo sapiens (Human), UniProt P14416) as the test system, report measured EC50 of CCCN1CCC[C@@H]2Cc3c(ccc(O)c3O[C@@H]3O[C@H](C(=O)O)[C@@H](O)[C@H](O)[C@H]3O)C[C@H]21 . 1100

Using human D2 receptor (Homo sapiens (Human), UniProt P14416) as the test system, report measured EC50 of CCCN1CCC[C@@H]2Cc3c(ccc(O)c3O)C[C@H]21 . 1.3

Origin of measurements: patent US20240352055A1
